meta.source: patent US20250171495A1

Target: HGFA (Homo sapiens, UniProt Q04756)
Construct: purchased R&D Systems 1514-SE-010
Sequence (Q04756 408-655 limits assumed): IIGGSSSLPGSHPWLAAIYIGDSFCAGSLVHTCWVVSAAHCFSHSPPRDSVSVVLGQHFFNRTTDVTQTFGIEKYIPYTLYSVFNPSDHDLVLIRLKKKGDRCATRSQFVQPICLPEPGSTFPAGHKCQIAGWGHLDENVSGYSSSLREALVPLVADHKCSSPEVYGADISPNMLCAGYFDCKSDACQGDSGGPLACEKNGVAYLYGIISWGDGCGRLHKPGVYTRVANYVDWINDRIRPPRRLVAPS
Sequence (Q04756 373-407 partner limits assumed): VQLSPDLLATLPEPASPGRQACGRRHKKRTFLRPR
Assay: Fluorogenic kinetic enzyme inhibitor assay, HGFA
Format: biochemical
Settings: read-out: HGFA IC50
propertyLabel: pIC50
Would you please state pIC50, meaning minus log10 of the concentration in mol/L, as a bare number?

[
  {
    "compound": "N=C(N)NCCC[C@H](NC(=O)[C@H](Cc1ccccc1)NC(=O)[C@H](CCC(N)=O)NCCc1ccccc1)C(=O)c1nc2ccccc2s1",
    "target": "HGFA (Homo sapiens, UniProt Q04756)",
    "propertyLabel": "pIC50",
    "testValue": 7.31
  },
  {
    "compound": "CCC(C)[C@H](NC(C)=O)C(=O)N[C@@H](CO)C(=O)N[C@@H](Cc1ccccc1)C(=O)N[C@@H](CCCNC(=N)N)C(=O)c1nc2ccccc2s1 (stereo partly drawn)",
    "target": "HGFA (Homo sapiens, UniProt Q04756)",
    "propertyLabel": "pIC50",
    "testValue": 6.90
  }
]

Next up:
Query: What value of measured pIC50 is listed for CC(=O)N1CCC[C@H]1C(=O)N[C@@H](CCC(N)=O)C(=O)N[C@@H](Cc1ccccc1)C(=O)N[C@@H](CCCNC(=N)N)C(=O)c1nc2ccccc2s1 ?
Reply: 7.12

---

Reported IC50 by item:
Target: HGFA (Homo sapiens, UniProt Q04756)
Construct: purchased R&D Systems 1514-SE-010
Test: Fluorogenic kinetic enzyme inhibitor assay, HGFA
Type: biochemical
Conditions: read-out: HGFA IC50
Respond with a number, then the unit of measure.

Reference set, count: 2
[
  {
    "compound": "CC(=O)N[C@H]1CCCCn2cc(nn2)C[C@H](C(=O)N[C@H](CCCNC(=N)N)C(=O)c2nc3ccccc3s2)NC(=O)[C@H](CC(C)C)NC1=O [VD4118A]",
    "target": "HGFA (Homo sapiens, UniProt Q04756)",
    "testValue": "15.6 µM"
  },
  {
    "compound": "CCC(C)[C@H](NC(C)=O)C(=O)N[C@@H](CCC(N)=O)C(=O)N[C@H](C(=O)N[C@@H](CCCNC(=N)N)C(=O)c1nc2ccccc2s1)C(C)C (stereo partly drawn)",
    "target": "HGFA (Homo sapiens, UniProt Q04756)",
    "testValue": "0.799 µM"
  }
]

Next up:
Query: Item CCC(C)[C@H](NC(C)=O)C(=O)N[C@@H](CO)C(=O)N[C@@H](Cc1ccccc1)C(=O)N[C@H](CCCNC(=N)N)C(=O)c1nc2ccccc2s1 (stereo partly drawn) with HGFA (Homo sapiens, UniProt Q04756) - IC50?
Reply: 1.34 µM

---

Reported IC50 by item:
Target: Factor Xa (Homo sapiens)
Construct: TMPRSS2; Matriptase; Hepsin; HGFA; Thrombin; Factor Xa
Sequence (P00742 235-488 limits assumed): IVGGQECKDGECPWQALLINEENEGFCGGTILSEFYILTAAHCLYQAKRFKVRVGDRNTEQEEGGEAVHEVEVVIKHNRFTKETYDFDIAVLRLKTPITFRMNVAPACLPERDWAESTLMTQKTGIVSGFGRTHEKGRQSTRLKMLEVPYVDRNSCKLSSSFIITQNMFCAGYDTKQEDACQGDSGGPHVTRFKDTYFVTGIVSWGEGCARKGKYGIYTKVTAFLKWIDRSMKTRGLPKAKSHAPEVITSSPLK
Sequence (P00742 41-179 partner limits assumed): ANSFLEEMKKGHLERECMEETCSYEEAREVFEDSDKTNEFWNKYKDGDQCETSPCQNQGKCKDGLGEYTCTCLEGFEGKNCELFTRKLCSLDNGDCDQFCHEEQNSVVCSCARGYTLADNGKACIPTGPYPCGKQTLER
Experiment: Fluorogenic assay, Factor Xa
Assay type: biochemical
Conditions: read-out: Factor Xa IC50
Please respond with the number in nM and leave the unit unwritten.

[
  {
    "compoundStructureString": "CSCC[C@@H]1NC(=O)[C@@H](NC(C)=O)CC(=O)NCCCC[C@@H](C(=O)N[C@@H](CCCNC(=N)N)C(=O)c2nc3ccccc3s2)NC1=O",
    "propertyLabel": "IC50",
    "valueUnit": "nM",
    "testValue": 1390
  },
  {
    "compoundStructureString": "N=C(N)NCCC[C@H](NC(=O)[C@H](Cc1ccccc1)NC(=O)OCC1c2ccccc2-c2ccccc21)C(=O)c1nc2ccccc2s1",
    "propertyLabel": "IC50",
    "valueUnit": "nM",
    "testValue": 28.4
  }
]

Next up:
Query: What value of measured IC50 is listed for CC(=O)N[C@@H](CO)C(=O)NCc1cccc(CC(=O)N[C@@H](CC(C)C)C(=O)N[C@@H](CCCNC(=N)N)C(=O)c2nc3ccccc3s2)c1 ?
Reply: 1890

---

Reported IC50 by item:
Target: TMPRSS2 (Homo sapiens, UniProt O15393)
Sequence (O15393 106-492 limits assumed): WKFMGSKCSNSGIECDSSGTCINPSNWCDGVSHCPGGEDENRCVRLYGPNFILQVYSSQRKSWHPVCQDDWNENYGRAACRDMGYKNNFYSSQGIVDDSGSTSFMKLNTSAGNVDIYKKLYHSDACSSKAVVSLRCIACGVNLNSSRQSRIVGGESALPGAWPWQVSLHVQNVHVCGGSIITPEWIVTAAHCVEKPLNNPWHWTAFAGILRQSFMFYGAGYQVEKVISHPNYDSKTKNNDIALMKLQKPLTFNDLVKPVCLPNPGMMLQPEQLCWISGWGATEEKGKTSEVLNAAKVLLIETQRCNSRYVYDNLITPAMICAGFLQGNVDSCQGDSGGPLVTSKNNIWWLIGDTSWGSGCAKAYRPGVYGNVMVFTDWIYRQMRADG
Experiment: Fluorogenic kinetic enzyme inhibitor assay, TMPRSS2
Assay type: biochemical
Parameters: purchased Cusabio Technology CSB-YP023924HU
Numbered stars: 1 amine (or outer) side, 2 acyl side, 3 side chain; on linkers, the order of the positions; unused ones are H or OH. Square brackets hold non-standard residues; d marks the D form. Peptide text beside a SMILES is read from it. X1 = N=C(N)NCCC[C@H](N[*:1])C(=O)c1nc2ccc(C(=O)[*:2])cc2s1
Please respond with the number in nM and leave the unit unwritten.

[
  {
    "molecule": "CC(=O)N1c2ccccc2C[C@H]1C(=O)N[C@@H](CCC(=O)OC1CCCCC1)C(=O)N[C@@H](Cc1ccc(F)cc1)C(=O)N[C@@H](CCCNC(=N)N)C(=O)c1nc2ccccc2s1 [MF1065]",
    "IC50, nM": 0.062
  }
]

Query: What value of measured IC50 is listed for CC(=O)N[C@@H](CO)C(=O)N[C@@H](CCCCN)C(=O)N[C@@H](CC(C)C)C(=O)N[C@@H](CCCNC(=N)N)C(=O)c1nc2ccc(C(=O)N[C@H](C(N)=O)C(C)C)cc2s1 [ZFH7116] (Ac-SKL[X1]V-NH2) ?
Reply: 2.5

Query: Also check CC(=O)N[C@@H](CO)C(=O)N[C@@H](CCCCN)C(=O)N[C@@H](CC(C)C)C(=O)N[C@@H](CCCNC(=N)N)C(=O)c1nc2ccccc2s1 [ZFH7053]
Reply: 39.2

Query: Also check C=CCOC(=O)CC[C@H](NC(=O)[C@H](CCC(C)C)NC(C)=O)C(=O)N[C@@H](Cc1ccc(F)cc1)C(=O)N[C@@H](CCCNC(=N)N)C(=O)c1nc2ccccc2s1 [MF1140]
Reply: 0.001

---

Target: matriptase (Homo sapiens, UniProt Q9Y5Y6)
Construct: purchased R&D Systems 3946-SEB-010
Sequence (Q9Y5Y6 615-855 limits assumed): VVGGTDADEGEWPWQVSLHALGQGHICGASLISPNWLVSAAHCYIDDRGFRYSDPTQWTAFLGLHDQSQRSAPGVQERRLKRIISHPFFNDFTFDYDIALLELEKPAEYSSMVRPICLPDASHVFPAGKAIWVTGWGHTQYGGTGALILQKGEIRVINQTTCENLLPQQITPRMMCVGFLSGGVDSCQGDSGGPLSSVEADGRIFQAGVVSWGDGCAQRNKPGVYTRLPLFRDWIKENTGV
Test: Fluorogenic kinetic enzyme inhibitor assay, matriptase
Format: biochemical
Details: read-out: Matriptase IC50
Reported IC50 by item:
Please respond with the number in nM and leave the unit unwritten.

Reference set, count: 5
[
  {
    "molecule": "N=C(N)NCCC[C@@H](NC(=O)[C@H](Cc1ccccc1)NC(=O)[C@H](CCC(N)=O)NCCc1ccccc1)C(=O)c1nc2ccccc2s1 [CA1033-1]",
    "valueUnit": "nM",
    "testValue": 77.9
  },
  {
    "molecule": "N=C(N)NCCC[C@H](NC(=O)[C@H](CCC(=O)OCc1ccccc1)NC(=O)OCc1ccccc1)C(=O)c1nc2ccccc2s1 [MF1169]",
    "valueUnit": "nM",
    "testValue": 290
  },
  {
    "molecule": "CC(=O)N[C@H]1Cc2ccc(cc2)OC/C=C\\CNC(=O)C[C@@H](C(=O)N[C@@H](CCCNC(=N)N)C(=O)c2nc3ccccc3s2)NC(=O)[C@H](CC(C)C)NC1=O [VD4054]",
    "valueUnit": "nM",
    "testValue": 44
  },
  {
    "molecule": "N=C(N)NCCC[C@H](NC(=O)[C@H](Cc1cccs1)NC(=O)OCC1c2ccccc2-c2ccccc21)C(=O)c1nc2ccccc2s1 [MF1184]",
    "valueUnit": "nM",
    "testValue": 58.7
  },
  {
    "molecule": "CC(=O)N[C@@H](Cc1cncn1COCc1ccccc1)C(=O)N[C@@H](CCC(C)C)C(=O)N[C@@H](CCCNC(=N)N)C(=O)c1nc2ccccc2s1 [JH1142-2]",
    "valueUnit": "nM",
    "testValue": 1.16
  }
]

Query: What value of measured IC50 is listed for N=C(N)NCCC[C@@H](NC(=O)[C@H](Cc1ccccc1)NC(=O)[C@H](CCC(N)=O)NCc1ccccc1)C(=O)c1nc2ccccc2s1 [CA1022-1] ?
Reply: 8.8

Query: Also check N=C(N)NCCC[C@H](NC(=O)[C@H](Cc1ccccc1)NC(=O)[C@H](CCC(N)=O)NCCc1ccccc1)C(=O)c1nc2ccccc2s1 [CA1033-2]
Reply: 2.81

Query: Also check CN(C)[C@@H](CCC(N)=O)C(=O)N[C@@H](Cc1ccccc1)C(=O)N[C@@H](CCCNC(=N)N)C(=O)c1nc2ccccc2s1 [CA1041-2]
Reply: 3.5

---

Target: matriptase (Homo sapiens, UniProt Q9Y5Y6)
Construct: purchased R&D Systems 3946-SEB-010
Assay: Fluorogenic kinetic enzyme inhibitor assay, matriptase
Assay type: biochemical
Details: read-out: Matriptase IC50
Numbered stars: 1 amine (or outer) side, 2 acyl side, 3 side chain; on linkers, the order of the positions; unused ones are H or OH. Square brackets hold non-standard residues; d marks the D form. Peptide text beside a SMILES is read from it. X1 = N=C(N)NCCC[C@H](N[*:1])C(=O)c1nc2ccc(C(=O)[*:2])cc2s1
Reported pIC50 by item:
Would you please state pIC50, meaning minus log10 of the concentration in mol/L, as a bare number?

Reference set, count: 3
[
  {
    "compound": "CCC(C)[C@H](NC(C)=O)C(=O)N[C@@H](CCC(N)=O)C(=O)N[C@@H](Cc1ccccc1)C(=O)N[C@@H](CCCNC(=N)N)C(=O)c1nc2ccccc2s1 (some centres unmarked) [MM3116]",
    "testValue": 9.04
  },
  {
    "compound": "CC(=O)N[C@@H](CO)C(=O)N[C@@H](CCCCN)C(=O)N[C@@H](CC(C)C)C(=O)N[C@@H](CCCNC(=N)N)C(=O)c1nc2ccc(C(=O)N[C@H](C(N)=O)C(C)C)cc2s1 [ZFH7116] (Ac-SKL[X1]V-NH2)",
    "testValue": 7.85
  },
  {
    "compound": "N=C(N)NCCC[C@H](NC(=O)[C@H](CCCCNC(=O)OCc1ccccc1Cl)NC(=O)OCC1c2ccccc2-c2ccccc21)C(=O)c1nc2ccccc2s1 [MF1151]",
    "testValue": 7.95
  }
]

Query: What value of measured pIC50 is listed for N=C(N)NCCC[C@H](NC(=O)[C@H](CC1CCCCC1)NC(=O)OCC1c2ccccc2-c2ccccc21)C(=O)c1nc2ccccc2s1 [MF1142] ?
Reply: 5.55

Query: Also check N=C(N)NCCC[C@@H](NC(=O)[C@H](Cc1ccccc1)NC(=O)[C@H](CCC(N)=O)N1CCCCC1)C(=O)c1nc2ccccc2s1 [CA1046-1]
Reply: 5.75
